system: Johnsongrass; experiment: Preemergence herbicidal activity, % control of plant growth; assay type: in vivo; conditions: Sorghum halepense, pre-emergence, 504 h, 16 lb/acre, about 3 weeks
experimental.endpoint: pest or weed control at 17933.6 g/ha (%)
# value in %; strip the unit string

// known answers, use as guide
> print(dat)
                                   compound  target.or.test.system  result
1         O=c1[nH]c2cccnc2c(=O)n1C1CCCCCCC1           Johnsongrass     100
2              CC(C)n1c(=O)[nH]c2cccnc2c1=O           Johnsongrass     100
3  CCC(C)n1c(=O)[nH]c2cccnc2c1=O (stereo not drawn)           Johnsongrass     100
4          O=c1[nH]c2cccnc2c(=O)n1Cc1ccccc1           Johnsongrass      90
5         O=c1[nH]c2nccnc2c(=O)n1C1CCCCCCC1           Johnsongrass      90

# input for lookup
Quick check: pest or weed control at 17933.6 g/ha of CCCCC(CC)Cn1c(=O)[nH]c2cccnc2c1=O (stereo not drawn) ?
0

Source of measurements: patent US3960877A
